# Tested on: HCT-116
# METHOD SUMMARY: NCI tumour cell line growth inhibition, 48 h
The source made the active and inactive calls. Rule as the data show it: active = GI50 up to about 1.1 µM and inactive = higher.
Allowed answers: active, inactive

Reference set (5 entries):
[
  {
    "MOLECULE": "O=c1/c(=C/c2ccc([N+](=O)[O-])o2)sc2n1[C@@H](c1ccc(Cl)cc1)C=C(c1cc(F)c(Cl)cc1Cl)N=2",
    "STUDY TARGET": "HCT-116",
    "ANSWER LABEL": "inactive"
  },
  {
    "MOLECULE": "CCNC1CC(n2cc(C)c(=O)[nH]c2=O)OC1CO (centres undefined)",
    "STUDY TARGET": "HCT-116",
    "ANSWER LABEL": "inactive"
  },
  {
    "MOLECULE": "CCOC(=O)/C=C(\\C(=O)OCC)n1cc(C)c(=O)n(Cc2cnnn2COCCOC(C)=O)c1=O",
    "STUDY TARGET": "HCT-116",
    "ANSWER LABEL": "inactive"
  },
  {
    "MOLECULE": "CC#CC(O)(C(=O)OCCCN(C)C)C1CCCCC1 (centres undefined)",
    "STUDY TARGET": "HCT-116",
    "ANSWER LABEL": "inactive"
  },
  {
    "MOLECULE": "O=[N+]([O-])/C(C(Cl)=C(Cl)Cl)=C(/Sc1ccccc1)N1CCOCC1",
    "STUDY TARGET": "HCT-116",
    "ANSWER LABEL": "inactive"
  }
]

We next turn to a different molecule, shown below.
Task: Given CCCCCCCCCCCCCCCC1(OC)C[N+](C)(C)CCO1 (centres undefined) , state the outcome it received in this test.
Output: inactive
